Just for reference, patent US20240398805A1 is where these values come from.

Reported values: GI50 for A431 cells, one per item.
Quantity: GI50

> print(dat)
                    structure.smiles.string  quantity   assay.result
1  C=CC(=O)N1CCC(Nc2cc3c(Nc4ccc(Oc5ccnc(N[C@@H]6CCOC6)c5)cc4F)ncnc3cc2OC)CC1      GI50  300 to 600 nM
2  C=CC(=O)N1CCC(Nc2cc3c(Nc4ccc(Oc5ccnc(N6C[C@@H]7OCCO[C@@H]7C6)c5)cc4F)ncnc3cc2OC)CC1      GI50      ≥ 1000 nM
3  C=CC(=O)N1CCC(Nc2cc3c(Nc4ccc(Oc5ccnc(N6CC[C@@H](OC)C6)c5)cc4F)ncnc3cc2OC)CC1      GI50      ≥ 1000 nM
4  C=CC(=O)N1CCC(Nc2cc3c(Nc4ccc(Oc5ccnc(N6CCC(C)(C#N)CC6)c5)cc4F)ncnc3cc2OC)CC1      GI50      ≥ 1000 nM
5  C=CC(=O)N1CCC(Nc2cc3c(Nc4ccc(Oc5ccn(-c6cnc(C)cn6)n5)cc4F)ncnc3cc2OC)CC1      GI50  100 to 300 nM
6  C=CC(=O)N1CCC(Nc2cc3c(Nc4ccc(Oc5ccnc(N6CC(C(F)(F)F)C6)c5)cc4F)ncnc3cc2OC)CC1      GI50  300 to 600 nM
7  C=CC(=O)N1CCC(Nc2cc3c(Nc4ccc(Oc5ccnc(N6CC7CCC(C6)O7)c5)cc4F)ncnc3cc2OC)CC1      GI50  300 to 600 nM

----------
The compounds listed here are annotated with their GI50.
Test system: HCC827-YVMA cells (human ERBB2 exon20 insertion mutant A775_G776ins YVMA)
Procedure text: Cell growth inhibition (CellTiter-Glo, 3 days) in HCC827-YVMA
Format: cell-based
Recorded conditions: 72 h, 3 days after administration
Quantity: GI50

> print(dat)
                                    compound  quantity     assay.result
 1  C=CC(=O)N1CCC(Nc2cc3c(Nc4ccc(Oc5ccnc(-c6cnn(C)c6)c5)cc4F)ncnc3cc2OC)CC1 [Compound 34]      GI50   0.06 to 0.1 µM
 2  C=CC(=O)N1CCC(Nc2cc3c(Nc4ccc(Oc5ccnc(CN6CCCC6)c5)cc4F)ncnc3cc2OC)CC1 [Example 209]      GI50   0.06 to 0.1 µM
 3  C=CC(=O)N1CCC(Nc2cc3c(Nc4ccc(Oc5ccnc(N6CCC[C@@H](O)C6)c5)cc4F)ncnc3cc2OC)CC1 [Example 214]      GI50        < 0.03 µM
 4  C=CC(=O)N1CCC(Nc2cc3c(Nc4ccc(Oc5ccnc(N6CC[C@H](O)[C@H](F)C6)c5)cc4F)ncnc3cc2OC)CC1 [Example 170]      GI50    0.1 to 0.3 µM
 5  C=CC(=O)N1CCC(Nc2cc3c(Nc4ccc(Oc5ccnc(N6C[C@H]7COC[C@H]7C6)c5)cc4F)ncnc3cc2OC)CC1 [Example 190]      GI50        < 0.03 µM
 6  C=CC(=O)N1CCC(Nc2cc3c(Nc4ccc(Oc5ccn(-c6cnc(C)c(F)c6)n5)c(Cl)c4)ncnc3cc2OC)CC1 [Example 20]      GI50    0.1 to 0.3 µM
 7  C=CC(=O)N1CCC(Nc2cc3c(Nc4ccc(Oc5ccn(-c6ccc(C)nc6F)n5)cc4F)ncnc3cc2OC)CC1 [Example 89]      GI50        < 0.03 µM
 8  C=CC(=O)N1CCC(Nc2cc3c(Nc4ccc(Oc5ccnc(N6CC(OC)C6)c5)cc4F)ncnc3cc2OC)CC1 [Example 119]      GI50    0.1 to 0.3 µM
 9  C=CC(=O)N1CCC(Nc2cc3c(Nc4ccc(Oc5ccn(-c6cnc(OC)c(F)c6)n5)cc4F)ncnc3cc2OC)CC1 [Example 90]      GI50   0.06 to 0.1 µM
10  C=CC(=O)N1CCC(Nc2cc3c(Nc4ccc(Oc5ccn(-c6cnc(C)c(OC)c6)n5)cc4F)ncnc3cc2OC)CC1 [Example 38]      GI50  0.03 to 0.06 µM
11  C=CC(=O)N1CCC(Nc2cc3c(Nc4ccc(Oc5ccnc(N6CC[C@@H](CO)C6)c5)cc4F)ncnc3cc2OC)CC1 [Example 251]      GI50  0.03 to 0.06 µM
12  C=CC(=O)N1CCC(Nc2cc3c(Nc4ccc(Oc5ccnc(-c6cccnc6)c5)cc4F)ncnc3cc2OC)CC1 [Example 237]      GI50        < 0.03 µM
13  C=CC(=O)N1CC[C@@H](Oc2cc3c(Nc4ccc(Oc5ccn(-c6cnc(OC)nc6)n5)cc4F)ncnc3cc2OC)C1 [Compound 80]      GI50           ≥ 1 µM
14  C=CC(=O)N1CCC(Nc2cc3c(Nc4ccc(Oc5ccnc(N6C[C@H](C)C[C@H](C)C6)c5)cc4F)ncnc3cc2OC)CC1 [Example 158]      GI50    0.3 to 0.6 µM
